- Tested on: SK-MEL-28
- Test Description: NCI tumour cell line growth inhibition, 48 h
Activity calls are given as the source filed them. No stated cut-off is given here; in the data, active = GI50 up to about 1.1 µM and inactive = higher.
# Lookup of reported GI50 keyed by entry

Consider the reported GI50 for these compounds:
{"Compound": "O=C1CCCCC1C(O)(C(F)(F)F)C(F)(F)Cl (stereo not drawn)", "Data Value": "> 10 µM (inactive)"}
{"Compound": "CC1(C)CCCCCC(C)(CCCO)C1=O (stereo not drawn)", "Data Value": "> 100 µM (inactive)"}

Entry "Cc1nc(C)c(N2CCN(CN)CC2)c(O)n1" ; GI50 = > 100 µM (inactive)

The compound "Cc1oc2c(C)c(O)c3c(c2c1C1(C)OCCO1)C(=O)C=C(Cl)C3=O" showed GI50 equal to > 100 µM (inactive)

Consider "CCC(=O)Nc1ncnc2ncn(C(=O)CC)c12" . Its measured GI50 is > 100 µM (inactive)

Reported GI50 ( "O=C(c1cccs1)N(Cc1cccnc1)C(=S)N(Cc1cccnc1)C(=O)c1cccs1" ) = > 100 µM (inactive)

The value of GI50 measured for the compound "COc1ccccc1NC(=S)NN=C(C)c1cccc(C(C)=NNC(=S)Nc2ccccc2OC)n1" turned out to be 79.4 µM (inactive)

# compound "CC(C)=CCC/C(C)=C/Cc1cc(/C=C/c2cc(O)c(CC=C(C)C)c(O)c2)cc(O)c1O" ; its GI50 = 5.18 µM (inactive)

The compound identified as "O=C(CCc1nnc2s/c(=C\c3ccccc3)c(=O)n12)Nc1cc(Cl)ccc1Cl" registered its GI50 at > 100 µM (inactive)

Data point: CC1(C)CCC(Sc2ccccc2)O1 (stereo not drawn) ; GI50 = > 100 µM (inactive)

For reference, reported GI50 for CCCCCCCCP(=O)(O)OP(=O)(O)OCC1OC(n2ccc(N)nc2=O)C(O)C1O (stereo not drawn) stands at > 100 µM (inactive)

// GI50 lookup, compound = OCC1CCC(n2cnc3c(O)ncnc32)O1 (stereo not drawn) , result: > 100 µM (inactive)

In plain terms, CN(C)CCN(C)C(=O)C1CCCN1C(=O)OCc1ccccc1 (stereo not drawn) has a documented GI50 of > 100 µM (inactive)

Documented GI50 of N#CC(Cc1ccccc1)N(CCC1=CCCCC1)C(c1ccccc1)c1ccccc1 (stereo not drawn) : 77.3 µM (inactive)

GET /value?item= "CC(C)C1=Cc2ccc3c(c2C(=O)C1=O)CCCC3(C)C" &field=GI50 returns 5.62 µM (inactive)

Value of GI50 reported for the compound "O=C1Nc2ccccc2/C1=N/NC(=S)N1CCCCCC1" is 1.87 µM (inactive)

So for "O=C(O)c1ccc2[nH]c(=O)oc2c1" , the logged GI50 turned out to be > 100 µM (inactive)

Summary for this compound, "CC(=N\N)/C(C)=N/N=C(C)/C(C)=N/N=C(C)/C(C)=N/N" : GI50 is > 100 µM (inactive)

Origin of values: ChEMBL document CHEMBL1201862
